All values here come from PubChem BioAssay (NCATS).

Below: a set of entries, each annotated with reported Z-AUC.
TEST_PROTOCOL: qHTS drug screen for cell cycle checkpoint inhibitors in PARPi-resistant BRCA-mutant ovarian cancer cell lines. (AID 1963452)
SETTINGS: PEO1/OlaR viability, CellTiter-Glo luminescence, 96 h; measured here: PEO4 Z-AUC; stronger effect = lower value
PROPERTY_LABEL: Z-AUC

1) OC[C@H]1O[C@@H](O[C@@H]2[C@@H](CO)O[C@](O)(CO)[C@H]2O)[C@H](O)[C@@H](O)[C@H]1O; -0.255
2) CCN(CC)CCNC(=O)c1c(C)[nH]c(/C=C2\C(=O)Nc3ccc(F)cc32)c1C; -0.0779
3) CC(=O)OCC(=O)[C@@]1(O)CC[C@H]2[C@@H]3CCC4=CC(=O)CC[C@]4(C)[C@H]3C(=O)C[C@@]21C; -0.613
4) C[C@H]1O[C@@H](n2cc(F)c(=O)[nH]c2=O)[C@H](O)[C@@H]1O; 1.52
5) CC1=C(/C=C/C(C)=C/C=C/C(C)=C/C(=O)O)C(C)(C)CCC1; 0.421
6) CC(=O)O[C@@]12CO[C@@H]1C[C@H](O)[C@@]1(C)C(=O)[C@H](O)C3=C(C)[C@@H](OC(=O)[C@H](O)[C@@H](NC(=O)OC(C)(C)C)c4ccccc4)C[C@@](O)([C@@H](OC(=O)c4ccccc4)[C@H]21)C3(C)C; -3.1
7) Nc1ncnc2c1ncn2[C@@H]1O[C@H](CO)[C@@H](O)[C@H]1O; 1.16
8) NC(=O)c1ncn([C@@H]2O[C@H](CO)[C@@H](O)[C@H]2O)n1; -0.149
9) NC(=O)c1ncn([C@@H]2O[C@H](CO)[C@@H](O)[C@H]2O)c1N; -0.555
10) Cc1c(O)cccc1C(=O)N[C@@H](CSc1ccccc1)[C@H](O)CN1C[C@H]2CCCC[C@H]2C[C@H]1C(=O)NC(C)(C)C; -1.07
11) Cn1c(=O)c2c(ncn2CC2OCCO2)n(C)c1=O; 0.00528

* * *

TEST_PROTOCOL: Cell Viability - BJ (AID 421);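 note: cells exposed to compound for 40 hours at 37 °C before readout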
SETTINGS: BJ fibroblast viability, qHTS
Records with an inconclusive call do not appear. Activity calls are given as the source filed them. Calls follow the shape of the full dose curve.
Possible outcomes: YES = active, NO = inactive

1) Nc1ccc(S(=O)(=O)Nc2nccs2)cc1; NO
2) Cc1c(O)cccc1C(=O)N[C@@H](CSc1ccccc1)[C@H](O)CN1C[C@H]2CCCC[C@H]2C[C@H]1C(=O)NC(C)(C)C; YES
3) NCCNCCNCCNCCN; NO
4) COc1ccccc1O; NO
5) CCCCOC(=O)c1ccc(O)cc1; NO
6) [Cl][In]([Cl])[Cl]; NO
7) COC(=O)C1=C(C)NC(C)=C(C(=O)OC)C1c1ccccc1[N+](=O)[O-]; NO
8) NCCNCCNCCN; NO
9) NC(=O)c1ncn([C@@H]2O[C@H](CO)[C@@H](O)[C@H]2O)n1; NO
10) CC12CCC(CC1)C(C)(C)O2; NO
11) CC1(C)[C@@H]2CC[C@@]1(C)C(=O)C2; NO
12) O=C1c2c(O)cccc2Cc2cccc(O)c21; NO
13) NC(=O)N/N=C/c1ccc([N+](=O)[O-])o1; NO
